# Ratio listing for each entry below
- test.details: Ratio of Kd for 5'-FAM-pre-miR-372 (unknown origin) in presence of 100-fold excess of Escherichia coli tRNA to Kd for 5'-FAM-pre-miR-372 (unknown origin)

Example results:
compound: C[C@H]1c2cccc(O)c2C(=O)C2=C(O)[C@]3(O)C(=O)C(C(N)=O)=C(O)[C@@H](N(C)C)[C@@H]3[C@@H](O)[C@@H]21 [DOXYCYCLINE]
Ratio: 2
//
compound: CN[C@@H]1[C@@H](O[C@H]2O[C@H](CO)[C@@H](N)[C@H](O)[C@H]2O)OC2C[C@@H](N)[C@@H](O[C@H]3[C@H](O)[C@@H](O)[C@H](N)C[C@@H]3N)OC2[C@@H]1O (stereo not given in full) [APRAMYCIN]
Ratio: 3
//
compound: NC[C@@H]1O[C@H](O[C@H]2[C@@H](O)[C@H](O[C@@H]3[C@@H](O)[C@H](N)C[C@H](N)[C@H]3O[C@H]3O[C@H](CO)[C@@H](O)[C@H](O)[C@H]3N)O[C@@H]2CO)[C@H](N)[C@@H](O)[C@@H]1O [PAROMOMYCIN]
Ratio: 1
//
compound: CN(C)[C@@H]1C(O)=C(C(N)=O)C(=O)[C@@]2(O)C(O)=C3C(=O)c4c(O)cccc4[C@@](C)(O)[C@H]3[C@H](O)[C@@H]12 [OXYTETRACYCLINE]
Ratio: 1.3

Ask | Please look at this compound and report its Ratio: CC[C@H]1OC(=O)[C@H](C)[C@@H](O[C@H]2C[C@@](C)(OC)[C@@H](O)[C@H](C)O2)[C@H](C)[C@@H](O[C@@H]2O[C@H](C)C[C@H](N(C)C)[C@H]2O)[C@](C)(O)C[C@@H](C)CN(C)[C@H](C)[C@@H](O)[C@]1(C)O [AZITHROMYCIN]
Reply | 1.2
